These entries and their values trace back to patent US20160346249A1.

assay.method.text: in vivo
assay.context: female, Crl:CD-1(ICR) BR, mouse, po, 10 mg/kg/day, AUC0-24
property.name: AUC(0-t) (ng·h/mL)
Give bare numbers, in ng·h/mL.

Prompt: Please list AUC(0-t) recorded for the compound Clc1ccc([C@]23CNC[C@H]2C3)cc1Cl [amitifadine]
Response: 2490

====

assay.method.text: Single-dose (25 mg) food effect crossover study in 24 men (DOV 947-003)
Assay type: in vivo, human
assay.context: male, human, in vivo, po, single oral dose 25 mg, Fed, 24 healthy male subjects
property.name: AUC(0-t) (ng·h/mL)
Numbers only, in ng·h/mL.

Prompt: Give the measured AUC(0-t) for "Clc1ccc([C@]23CNC[C@H]2C3)cc1Cl"
Response: 1320

====

assay.method.text: 13-week mouse toxicity and toxicokinetic study
assay.context: female, Crl:CD-1(ICR) BR, in vivo, po, 100 mg/kg/day, Cmax
property.name: Cmax (ng/mL)
Answers are plain numbers, in ng/mL.

Prompt: For the compound Clc1ccc([C@]23CNC[C@H]2C3)cc1Cl [amitifadine] , give its measured Cmax value.
Response: 2450

====

assay.method.text: Single rising oral dose (10-150 mg IR) safety, tolerance and pharmacokinetics in healthy male volunteers
Type: in vivo, human
assay.context: male, human, plasma, oral, 10 to 150 mg; read-out: mean residence time
property.name: MRT

Prompt: Answer with reported MRT of "Clc1ccc([C@]23CNC[C@H]2C3)cc1Cl"
Response: 5 to 6 h

====

assay.method.text: Rat developmental toxicity study with toxicokinetics
Assay type: in vivo
assay.context: female, Crl:CD(SD)IGS BR, rat, in vivo, po; pregnant rats, 10 mg/kg/day, GD 6
property.name: Tmax (h)
Numbers only, in h.

Prompt: Provide measured Tmax value, entry: "Clc1ccc([C@]23CNC[C@H]2C3)cc1Cl"
Response: 2

====

assay.method.text: 12-month dog toxicity and toxicokinetic study
Assay type: in vivo
assay.context: female, beagle, dog, plasma, po, 2 mg/kg/day, females, 2 mg/kg/day, Day 0
Experimental: Blood samples were collected on Days 0, 91, 181, 268 and 358 from up to 4 animals/gender/group. Plasma samples collected on Days 91, 181, 268, as well as all plasma samples collected from the control group were not evaluated. For toxicology assessment four dogs of each gender were included in each group. Assessments included clinical observations, body weight, and food consumption measures which were recorded periodically during the study. […]
property.name: Tmax (h)
Numbers only, in h.

Prompt: Tell us which Tmax value is on record for Clc1ccc([C@]23CNC[C@H]2C3)cc1Cl [amitifadine]
Response: 1

====

assay.method.text: 13-week dog toxicity and toxicokinetic study
Format: in vivo
assay.context: male, beagle, dog, in vivo, po, 20 mg/kg/day, males, 20 mg/kg/day, Day 0
property.name: Cmax (ng/mL)
One number for each entry, in ng/mL.

Prompt: Report Cmax, nothing else, for this molecule: "Clc1ccc([C@]23CNC[C@H]2C3)cc1Cl"
Response: 11400

====

assay.method.text: Single rising oral dose (10-150 mg IR) safety, tolerance and pharmacokinetics in healthy male volunteers
Type: in vivo, human
assay.context: male, human, plasma, oral, 150 mg, Mean (n = 7); read-out: AUC0-t
property.name: AUC(0-t) (ng·h/mL)
Numbers only, in ng·h/mL.

Prompt: Return the recorded AUC(0-t) value; entry: "Clc1ccc([C@]23CNC[C@H]2C3)cc1Cl"
Response: 8510

====

assay.method.text: Rat developmental toxicity study with toxicokinetics
Type: in vivo
assay.context: female, Crl:CD(SD)IGS BR, rat, in vivo, po, 20 mg/kg/day, pregnant rats, 20 mg/kg/day, GD 17
property.name: Cmax (ng/mL)
Numbers only, in ng/mL.

Prompt: Provide one value: measured Cmax of Clc1ccc([C@]23CNC[C@H]2C3)cc1Cl [amitifadine]
Response: 1890

====

assay.method.text: Single dose 300 mg / 450 mg pharmacokinetic, safety and tolerability study in healthy male and female subjects
assay.context: female, human, plasma, po, 300 mg, t½ (Harmonic mean), single oral 300 mg DOV 21,947 HCl IR, N = 5
property.name: half-life
For clarity, give the value followed by its unit.

compound: Clc1ccc([C@]23CNC[C@H]2C3)cc1Cl
half-life: 4.1 h

Prompt: Respond only with half-life recorded for O=C1NCC2(c3ccc(Cl)c(Cl)c3)CC12 (centres unmarked)
Response: 15 h

====

assay.method.text: 13-week dog toxicity and toxicokinetic study
Format: in vivo
assay.context: female, beagle, dog, in vivo, po, 6 mg/kg/day, females, 6 mg/kg/day, Day 86
property.name: Cmax (ng/mL)
One number for each entry, in ng/mL.

Prompt: Determine its reported Cmax: "Clc1ccc([C@]23CNC[C@H]2C3)cc1Cl"
Response: 4850

====

assay.method.text: Single rising oral dose (10-150 mg IR) safety, tolerance and pharmacokinetics in healthy male volunteers
Assay type: in vivo, human
assay.context: human, plasma, oral, 150 mg, individual subject
property.name: AUC(0-inf) (ng·h/mL)
Give bare numbers, in ng·h/mL.

Prompt: State, in one line, measured AUC(0-inf) of Clc1ccc([C@]23CNC[C@H]2C3)cc1Cl [amitifadine]
Response: 7300

====

assay.method.text: Single dose 300 mg / 450 mg pharmacokinetic, safety and tolerability study in healthy male and female subjects
assay.context: male, human, plasma, po, 300 mg
property.name: concentration at 6 h (ng/mL)
One number for each entry, in ng/mL.

Prompt: Fill in concentration at 6 h for record O=C1NCC2(c3ccc(Cl)c(Cl)c3)CC12 (stereo not shown)
Response: 1520

====

assay.method.text: Single rising oral dose (10-150 mg IR) safety, tolerance and pharmacokinetics in healthy male volunteers
Assay type: in vivo, human
assay.context: human, plasma, oral, 100 mg, individual subject; read-out: t1/2 (converted)
property.name: half-life (h)
Numbers only, in h.

Prompt: For the compound "Clc1ccc([C@]23CNC[C@H]2C3)cc1Cl" , report half-life.
Response: 3.94

====

assay.method.text: Acute intravenous or oral mouse bioavailability study
Type: in vivo
assay.context: plasma, fasted male mice, oral 6 mg/kg vs IV 5 mg/kg
property.name: bioavailability

Prompt: Identify bioavailability associated with the compound "Clc1ccc([C@]23CNC[C@H]2C3)cc1Cl"
Response: ~16%

====

assay.method.text: Single dose 300 mg / 450 mg pharmacokinetic, safety and tolerability study in healthy male and female subjects
assay.context: female, human, plasma, po, 450 mg
property.name: concentration at 3 h (ng/mL)
Numbers only, in ng/mL.

Prompt: Provide concentration at 3 h value for the following molecule: O=C1NCC2(c3ccc(Cl)c(Cl)c3)CC12 (stereo not shown) [EB-10101]
Response: 1650

====

assay.method.text: 13-week mouse toxicity and toxicokinetic study
assay.context: male, Crl:CD-1(ICR) BR, in vivo, po, 30 mg/kg/day, Cmax
property.name: Cmax (µg/mL)
One number for each entry, in µg/mL.

Prompt: Using known records, supply Cmax for "Clc1ccc([C@]23CNC[C@H]2C3)cc1Cl"
Response: 0.704

====

assay.method.text: 2-week dog toxicity and toxicokinetic study
Format: in vivo
assay.context: female, beagle, in vivo, oral, 10 mg/kg/day, females, 10 mg/kg/day, Day 13, read-out: AUC0-24
property.name: AUC(0-t) (ng·h/mL)
Numbers only, in ng·h/mL.

Prompt: Quick one: give measured AUC(0-t) for "Clc1ccc([C@]23CNC[C@H]2C3)cc1Cl"
Response: 11200

====

assay.method.text: 13-week dog toxicity and toxicokinetic study
Type: in vivo
assay.context: female, beagle, dog, in vivo, po, 6 mg/kg/day, females, 6 mg/kg/day, Day 0
property.name: Cmax (ng/mL)
Answers are plain numbers, in ng/mL.

Prompt: Provide one value: measured Cmax of Clc1ccc([C@]23CNC[C@H]2C3)cc1Cl [amitifadine]
Response: 5120

====

assay.method.text: 26-week rat toxicity and toxicokinetic study
Type: in vivo
assay.context: female, Crl:CD(SD)IGS BR, rat, in vivo, po, 8 mg/kg/day, females, 8 mg/kg/day, Day 177
property.name: Tmax (h)
Numbers only, in h.

Prompt: Look up and report measured Tmax for this entry: "Clc1ccc([C@]23CNC[C@H]2C3)cc1Cl"
Response: 2

====

assay.method.text: Single rising oral dose (10-150 mg IR) safety, tolerance and pharmacokinetics in healthy male volunteers
Type: in vivo, human
assay.context: male, human, plasma, oral, 100 mg, Geometric Mean
Procedure: Fifty (50) healthy male adult volunteers, between the ages of 19 and 43 years (mean±SD: 28±6 years) were enrolled in the study and randomized to the […] different treatments. […] The subjects were divided into panels of 10 subjects/dose group. […] The values of Cmax and Tmax were the observed value for each subject. […] The t1/2 (HL_Lambda_z) was calculated as ln 2/λz. […] The AUC values from the last quantifiable time point to infinity was calculated as Ct/λz. […] Oral clearance was calculated as Dose/AUC0-∞. […]
property.name: AUC(0-inf) (ng·h/mL)
Answers are plain numbers, in ng·h/mL.

Prompt: # return recorded AUC(0-inf) for input "Clc1ccc([C@]23CNC[C@H]2C3)cc1Cl"
Response: 4850
